- assayedSystem: HEK cells stably transfected with tetracycline inducible hNR1 and hNR2A (Homo sapiens, UniProt Q05586+Q12879)
- Construct: expressed in transfected cells; host or cells: HEK cells, stably transfected, tetracycline/doxycycline inducible
- Sequence (Q12879 23-1464, other chains not shown): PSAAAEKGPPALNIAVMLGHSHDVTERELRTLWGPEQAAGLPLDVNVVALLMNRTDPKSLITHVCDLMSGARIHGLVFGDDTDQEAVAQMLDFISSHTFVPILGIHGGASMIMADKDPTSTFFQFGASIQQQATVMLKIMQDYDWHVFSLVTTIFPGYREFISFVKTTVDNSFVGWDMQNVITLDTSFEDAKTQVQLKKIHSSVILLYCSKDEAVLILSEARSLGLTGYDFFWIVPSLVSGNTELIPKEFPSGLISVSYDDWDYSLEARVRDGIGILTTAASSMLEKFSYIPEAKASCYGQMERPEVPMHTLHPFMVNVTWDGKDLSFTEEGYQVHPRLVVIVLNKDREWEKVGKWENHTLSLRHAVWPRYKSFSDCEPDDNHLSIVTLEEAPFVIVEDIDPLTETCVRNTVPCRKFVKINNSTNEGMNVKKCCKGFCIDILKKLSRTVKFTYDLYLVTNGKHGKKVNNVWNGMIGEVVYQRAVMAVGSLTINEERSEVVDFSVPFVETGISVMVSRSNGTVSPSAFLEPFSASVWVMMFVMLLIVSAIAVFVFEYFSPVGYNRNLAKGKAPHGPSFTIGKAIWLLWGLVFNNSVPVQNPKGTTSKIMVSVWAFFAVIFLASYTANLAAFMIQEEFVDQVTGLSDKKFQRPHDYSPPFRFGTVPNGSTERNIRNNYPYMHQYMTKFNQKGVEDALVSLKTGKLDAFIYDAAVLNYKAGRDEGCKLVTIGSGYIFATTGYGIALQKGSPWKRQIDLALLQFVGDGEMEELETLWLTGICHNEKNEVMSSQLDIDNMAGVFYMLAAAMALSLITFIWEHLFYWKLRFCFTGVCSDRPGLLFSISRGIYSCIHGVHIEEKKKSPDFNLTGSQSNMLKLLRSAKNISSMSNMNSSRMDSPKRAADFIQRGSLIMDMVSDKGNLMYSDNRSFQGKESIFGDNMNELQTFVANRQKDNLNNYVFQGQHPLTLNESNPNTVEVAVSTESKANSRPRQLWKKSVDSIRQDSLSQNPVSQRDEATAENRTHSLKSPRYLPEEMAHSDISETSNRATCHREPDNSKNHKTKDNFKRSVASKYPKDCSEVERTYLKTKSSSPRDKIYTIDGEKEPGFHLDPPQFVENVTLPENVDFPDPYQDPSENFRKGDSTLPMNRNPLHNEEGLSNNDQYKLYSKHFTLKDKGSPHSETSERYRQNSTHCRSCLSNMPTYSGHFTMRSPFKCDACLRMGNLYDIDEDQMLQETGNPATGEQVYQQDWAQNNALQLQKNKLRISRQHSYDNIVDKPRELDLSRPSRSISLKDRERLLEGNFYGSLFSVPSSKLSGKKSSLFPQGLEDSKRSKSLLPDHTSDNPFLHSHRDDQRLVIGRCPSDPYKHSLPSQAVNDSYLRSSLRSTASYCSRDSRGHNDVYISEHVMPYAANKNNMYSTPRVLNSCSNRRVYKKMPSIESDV
- methodDescription: Assay 1: Cell-Based Assay, cytosolic calcium response to positive allosteric modulators (with 30 μM glycine and 300 nM L-glutamate, EC30)
- particulars: Table 2; responses scaled relative to 100 μM L-glutamate maximal response (100%) and 0 μM L-glutamate (0%)
observationType: Max % (%)

// known answers, use as guide
-- ask Item CCN(Cc1cc(=O)n2c(C#N)c(C)sc2n1)c1cccc(C#N)c1 : provide Max %
-- reply 151

-- ask Item CCN(Cc1cc(=O)n2c(CCCO)c(C)sc2n1)c1ccc(F)cc1 : provide Max %
-- reply 161

[A] CNC(=O)c1c(C)sc2nc(Cn3nc(C4CC4)cc3C(F)(F)F)cc(=O)n12
[B] CNC(=O)c1c(C)sc2nc(Cc3cccc(F)c3F)cc(=O)n12
[C] CCNC(=O)c1c(C(F)(F)F)sc2nc(Cn3nc(C(F)(F)F)cc3C3CC3)cc(=O)n12
[D] CCCc1ccc(F)cc1Cc1cc(=O)n2c(C(=O)NCC)c(C)sc2n1
-- ask I would appreciate it if you could sort these 4 compounds by Max %, starting from the smallest number. Enter labels, ranked according to the request.
-- reply B, D, A, C

[a] CCN(Cc1cc(=O)n2c3c(sc2n1)CCC3CO)c1ccc(F)cc1 (centres unmarked) [Example 8.5]
[b] CCNC(=O)c1c(C2CC2)sc2nc(Cc3cccc(C#N)c3)cc(=O)n12
-- ask Min Max %? a | b // return label of chosen record
-- reply b
(b: 53.5%, a: 114%)

[a] Cc1sc2nc(Cn3ncc4cc(F)ccc43)cc(=O)n2c1[C@@H]1C[C@H]1CO (relative stereo)
[b] Cc1sc2nc(Cn3nc(C4CC4)cc3C(F)(F)F)cc(=O)n2c1-c1cncnc1
-- ask Rank a against b by their Max % values and give the higher one. // return label of chosen record
-- reply a
(a: 123%, b: 80.8%)

[I] CCN(Cc1cc(=O)n2c(-c3ncco3)c(C)sc2n1)c1ccc(F)cc1
[II] CCN(Cc1cc(=O)n2c(N3CCCC3)c(C)sc2n1)c1ccc(F)cc1
-- ask Min Max %? I | II // return label of chosen record
-- reply II
(II: 91.9%, I: 152%)

Reference source: patent US9988400B2
